molecular target: T1, mOrai1-hOrai1 ECL2 (…) protein (human/mouse chimera, UniProt Q8BWG9 1-304 (mouse entry)); test: FACS, 293EBNA; design: concentration or dose not given beside the values
T1 construct: also called Ch
T1 sequence (Q8BWG9 other isoform, or with tags, fused parts or gaps): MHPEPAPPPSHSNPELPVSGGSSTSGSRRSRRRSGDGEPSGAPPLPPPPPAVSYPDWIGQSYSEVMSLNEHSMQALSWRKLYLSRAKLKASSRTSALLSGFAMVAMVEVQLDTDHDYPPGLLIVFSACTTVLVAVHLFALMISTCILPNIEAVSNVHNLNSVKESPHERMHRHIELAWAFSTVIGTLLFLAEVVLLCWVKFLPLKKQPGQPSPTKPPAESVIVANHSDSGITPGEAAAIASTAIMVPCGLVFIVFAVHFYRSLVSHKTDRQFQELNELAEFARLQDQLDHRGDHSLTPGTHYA
recorded.metric: POC (percent of control, FACS Geo Mean relative to Ch. 1)

Exam item: Would you mind telling me what POC (percent of control, FACS Geo Mean relative to Ch. 1) value was observed for mAb 2C1.1 (antibody, human IgG2, lambda, V domains shown, fully human IgG2 lambda, Campaign 1; tested hybridoma-purified and recombinant; also called anti-hOrai1 mAb 2C1.1) VH: QVQLQQWGAGLLKPSETLSLTCAVYGGSFSGYYWSWIRQPPGKGLEWIGEIDHSGSTNYNPALKSRLTISVDTSKNQFSLKLSSVTAADTAVYYCARAGSGGYEDWFDPWGQGTLVTVSS VL: QSVLTQPPSVSGAPGQRVTISCTGSSSNIGAGYNVHWYQQFPRTDPKLLIYVYNIRPSGVPDRFSGSRSGTSASLAITGLQTEDEADYYCQSYDSSLSGVVFGGGTKLTVLG ?
Marked response: < 1%
